assay: Caspase-3/7 induction in CHO-K1 cells by small molecules, qHTS assay (AID 1346980); details: CHO-K1 caspase-3/7 induction, Caspase-Glo luminescence, 17 h; series mostly up to 92.4 µM; note: % is set by controls: 0 for no effect and ±100 for the full control effect; nearly all actives have a fitted effect of over 15% in size
Active and inactive are the calls of the source. Calls come from the whole dose curve; as a rule, active = well fitted activation curve with a large enough effect in the repeat runs; inconclusive = weak or mixed curves; inactive = flat fitted curve, though single readings scatter.
measured-property: outcome

Completed entries (count: 6):
>  <compound>
CCCCC(CC)COC(C)=O (configuration not stated)

>  <measured-property>
outcome

>  <result>
inactive

$$$$
>  <compound>
CCCCCCCCCCC=CC1CC(=O)OC1=O (configuration not stated)

>  <measured-property>
outcome

>  <result>
inactive

$$$$
>  <compound>
NCCNCCNCCNCCN

>  <measured-property>
outcome

>  <result>
inactive

$$$$
>  <compound>
c1ccc2[nH]cnc2c1

>  <measured-property>
outcome

>  <result>
inactive

$$$$
>  <compound>
CC#C[C@]1(O)CC[C@H]2[C@@H]3CCC4=CC(=O)CCC4=C3[C@@H](c3ccc(N(C)C)cc3)C[C@@]21C

>  <measured-property>
outcome

>  <result>
inactive

$$$$
>  <compound>
CS(=O)(=O)Nc1ccc([N+](=O)[O-])cc1Oc1ccccc1

>  <measured-property>
outcome

>  <result>
inactive

$$$$

With those in mind, consider the next compound.
Lab book: outcome of CCC(=O)O noted as inactive

###

Assay: qHTS assay to identify small molecule agonists of the estrogen receptor beta (ER-beta) signaling pathway - cell viability counter screen (AID 1259380); note: nearly all actives have a fitted effect of over 30% in size; note: potency is the fitted concentration of half-maximal effect
Details: ER-beta-bla HEK293T viability, CellTiter-Glo luminescence, 16 h; series mostly up to 92.4 µM
Source text: National Center for Advancing Translational Sciences [NCATS] NIH Chemical Genomics Center [NCGC] U.S. Environmental Protection Agency [EPA] National Institutes of Environmental Health Sciences [NIEHS] National Toxicology Program [NTP] U.S. Food and Drug Administration [FDA] Estrogen receptor (ER), a nuclear hormone receptor, plays an important role in development, metabolic homeostasis and reproduction. […]
Records with an inconclusive call do not appear. Activity calls are given as the source filed them. The call rests on the fitted dose curve; in most records, active means well fitted cell-killing curve with a large enough effect in the repeat runs; inconclusive means weak or mixed curves, or effect the other way; inactive means flat fitted curve, though single readings scatter.
measured-property: Potency

Completed entries (count: 5):
>  <compound>
Oc1ccc(OCc2ccccc2)cc1

>  <measured-property>
Potency

>  <result>
inactive

$$$$
>  <compound>
CCCCOCCO

>  <measured-property>
Potency

>  <result>
inactive

$$$$
>  <compound>
CCCCCCCCCCCCOCC1CO1 (stereo not given)

>  <measured-property>
Potency

>  <result>
inactive

$$$$
>  <compound>
O=[N+]([O-])c1cccc(Cl)c1

>  <measured-property>
Potency

>  <result>
inactive

$$$$
>  <compound>
CC1=CC[C@H]2C[C@@H]1C2(C)C

>  <measured-property>
Potency

>  <result>
inactive

$$$$

Lab book: Potency of Cc1ccc(N)c(S(=O)(=O)O)c1 noted as inactive

Lab book: Potency of NCCNCCNCCNCCN noted as inactive

Lab book: Potency of CCOC(=O)[C@H](CCc1ccccc1)N[C@@H](C)C(=O)N1Cc2ccccc2C[C@H]1C(=O)O noted as inactive

Lab book: Potency of CC(C)Cc1ccccc1 noted as inactive

Lab book: Potency of O=S(=O)(O)CCS noted as inactive

Lab book: Potency of CN(C)c1cccc(O)c1 noted as inactive

Lab book: Potency of CCCCC(CC)COC(=O)CCCCCCCC(=O)OCC(CC)CCCC (stereo not given) noted as 15.4 µM (active)

Lab book: Potency of O=[N+]([O-])c1cc(N(CCO)CCO)ccc1NCCO noted as inactive

Lab book: Potency of CC(C)(C)C(=O)C1C(=O)c2ccccc2C1=O noted as inactive

Lab book: Potency of C=C(C)C(=O)OCCC[Si](OC)(OC)OC noted as inactive

###

Experiment: qHTS assay to identify small molecule antagonists of the thyroid receptor (TR) signaling pathway - cell viability counter screen (AID 743064); note: nearly all actives have a fitted effect of over 50% in size
Details: GH3.TRE-Luc viability, CellTiter-Fluor, 24 h; series mostly up to 70.3 µM
Text: National Center for Advancing Translational Sciences [NCATS] NIH Chemical Genomics Center [NCGC] U.S. Environmental Protection Agency [EPA] National Institutes of Environmental Health Sciences [NIEHS] National Toxicology Program [NTP] U.S. Food and Drug Administration [FDA] Thyroid receptor (TR), a nuclear hormone receptor, plays an important role in development, proliferation, differentiation, metabolism, brain function, and cardiovascular system. […]
Inconclusive results are not listed. Calls of active or inactive are those of the source. The call rests on the fitted dose curve; in most records, active means well fitted cell-killing curve with a large enough effect in the repeat runs; inconclusive means weak or mixed curves, or effect the other way; inactive means no such curve, though single readings can be large or run the other way.
Parameter call: string, one of active, inactive

Worked cases, answers included:
>  <molecule>
O=[N+]([O-])c1cc(N(CCO)CCO)ccc1NCCO

>  <group>
active

$$$$
>  <molecule>
CC(=O)Nc1ccc(C(=O)O)cc1

>  <group>
inactive

$$$$
>  <molecule>
CC1=C(CC(=O)O)c2cc(F)ccc2/C1=C\c1ccc(S(C)=O)cc1 (stereo not drawn)

>  <group>
inactive

$$$$
>  <molecule>
CCCCCCCCCC(=O)O

>  <group>
inactive

$$$$
>  <molecule>
c1ccc2[nH]cnc2c1

>  <group>
inactive

$$$$

Prompt: Hello, I am checking results. What call was entered for CC(C)Cc1ccccc1 ?
Response: inactive

Prompt: Hello, I am checking results. What call was entered for O=Nc1ccc(O)cc1 ?
Response: inactive

Prompt: Hello, I am checking results. What call was entered for CC1=C(/C=C/C(C)=C/C=C/C(C)=C/CO)C(C)(C)CCC1 ?
Response: inactive

###

test: qHTS assay to identify aromatase inhibitors - cell viability counter screen (AID 743084); conditions: MCF-7 aro ERE viability, CellTiter-Fluor, 24 h; series mostly up to 70.3 µM;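 note: cells stimulated with testosterone during compound exposure; nearly all actives have a fitted effect of over 55% in size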
Results filed as inconclusive are left out. Activity calls are given as the source filed them. Calls come from the whole dose curve; as a rule, active = well fitted cell-killing curve with a large enough effect in the repeat runs; inconclusive = weak or mixed curves, or effect the other way; inactive = no such curve, though single readings can be large or run the other way.
Parameter call: string, one of T for active, F for inactive

>  <molecule>
S=c1nc[nH]c2nc[nH]c12

>  <group>
F

$$$$
>  <molecule>
NCCc1ccc(O)c(O)c1

>  <group>
T

$$$$

Prompt: Hello, I am checking results. What call was entered for Cc1ccc(C)c(C)c1 ?
Response: F

Prompt: Hello, I am checking results. What call was entered for CCC(=O)O ?
Response: F

Prompt: Hello, I am checking results. What call was entered for CC(C)(N=C=O)c1cccc(C(C)(C)N=C=O)c1 ?
Response: F

Prompt: Hello, I am checking results. What call was entered for C=C(C)C(=O)OCC(CC)(COC(=O)C(=C)C)COC(=O)C(=C)C ?
Response: F

Prompt: Hello, I am checking results. What call was entered for NCc1cccc(CN)c1 ?
Response: F

Prompt: Hello, I am checking results. What call was entered for C=CC(=O)OCCCCCCCC(C)C ?
Response: F

Prompt: Hello, I am checking results. What call was entered for COCC(C)O (stereo not given) ?
Response: F

Prompt: Hello, I am checking results. What call was entered for O=C(Oc1ccccc1)c1ccc(O)cc1 ?
Response: F

Prompt: Hello, I am checking results. What call was entered for CCCCCCCCCCCCOCC1CO1 (stereo not given) ?
Response: F

Prompt: Hello, I am checking results. What call was entered for ClC1=C(Cl)C(Cl)(Cl)C(Cl)=C1Cl ?
Response: F

Prompt: Hello, I am checking results. What call was entered for O=C(O)c1cc(-c2ccccc2)nc2ccccc12 ?
Response: F

Prompt: Hello, I am checking results. What call was entered for Cc1ccc(N)c(S(=O)(=O)O)c1 ?
Response: F

Prompt: Hello, I am checking results. What call was entered for OC[C@@H](O)[C@H](O)[C@H](O)[C@@H](O)CO ?
Response: F

###

target: Progesterone receptor (Homo sapiens) (UniProt P06401); test: qHTS assay to identify small molecule antagonists of the progesterone receptor (PR) signaling pathway (AID 1346795); details: PR-UAS-bla HEK293T, beta-lactamase FRET ratio, 16 h; series mostly up to 92.4 µM
Sequence (P06401 whole entry, looked up): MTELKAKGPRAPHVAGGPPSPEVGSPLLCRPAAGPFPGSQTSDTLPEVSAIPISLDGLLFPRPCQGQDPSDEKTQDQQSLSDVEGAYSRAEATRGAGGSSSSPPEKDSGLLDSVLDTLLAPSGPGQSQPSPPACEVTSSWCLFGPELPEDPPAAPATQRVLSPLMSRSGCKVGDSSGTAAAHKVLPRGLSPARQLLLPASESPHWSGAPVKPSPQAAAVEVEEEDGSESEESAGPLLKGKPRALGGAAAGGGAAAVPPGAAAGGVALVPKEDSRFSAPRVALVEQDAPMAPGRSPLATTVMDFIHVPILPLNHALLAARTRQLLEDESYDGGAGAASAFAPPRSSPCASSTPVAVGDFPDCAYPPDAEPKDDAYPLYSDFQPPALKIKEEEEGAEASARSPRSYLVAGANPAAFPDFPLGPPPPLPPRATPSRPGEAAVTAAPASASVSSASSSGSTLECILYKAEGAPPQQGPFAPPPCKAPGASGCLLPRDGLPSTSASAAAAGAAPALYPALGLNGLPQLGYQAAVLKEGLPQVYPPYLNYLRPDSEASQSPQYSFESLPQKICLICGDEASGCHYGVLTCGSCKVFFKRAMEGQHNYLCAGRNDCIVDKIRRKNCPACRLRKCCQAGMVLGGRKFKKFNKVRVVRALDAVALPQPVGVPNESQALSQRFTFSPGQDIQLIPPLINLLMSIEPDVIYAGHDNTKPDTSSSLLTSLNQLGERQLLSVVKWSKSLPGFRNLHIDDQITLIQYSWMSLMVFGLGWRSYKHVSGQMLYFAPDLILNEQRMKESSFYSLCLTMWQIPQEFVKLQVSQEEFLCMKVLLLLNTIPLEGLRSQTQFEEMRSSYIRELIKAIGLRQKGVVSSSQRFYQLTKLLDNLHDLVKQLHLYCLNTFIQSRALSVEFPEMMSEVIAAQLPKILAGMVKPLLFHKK
Inconclusive results are not listed. Active and inactive are the calls of the source. Calls come from the whole dose curve; as a rule, active = well fitted inhibition curve with a large enough effect in the signal ratio in the repeat runs (not every such curve was filed as active); inconclusive = weak or mixed curves; inactive = flat fitted curve, though single readings scatter; the % refers to the signal ratio.
Parameter call: string, one of 1.0 for active, 0.0 for inactive

>  <compound>
CC(=O)Nc1ccc(C(=O)O)cc1

>  <group>
0.0

$$$$
>  <compound>
CCCCCCCCCCCCN

>  <group>
0.0

$$$$
>  <compound>
CC1=CC[C@H]2C[C@@H]1C2(C)C

>  <group>
0.0

$$$$
>  <compound>
NCCNCCNCCNCCN

>  <group>
0.0

$$$$
>  <compound>
CS(=O)(=O)c1ccc([C@@H](O)[C@@H](CO)NC(=O)C(Cl)Cl)cc1

>  <group>
0.0

$$$$

Prompt: Hello, I am checking results. What call was entered for OC[C@@H](O)[C@H](O)[C@H](O)[C@@H](O)CO ?
Response: 0.0

Prompt: Hello, I am checking results. What call was entered for Nc1c(S(=O)(=O)O)cc(Br)c2c1C(=O)c1ccccc1C2=O ?
Response: 0.0

Prompt: Hello, I am checking results. What call was entered for Cc1ccc(C(=O)O)o1 ?
Response: 0.0

Prompt: Hello, I am checking results. What call was entered for COCC(C)O (centres undefined) ?
Response: 0.0

Prompt: Hello, I am checking results. What call was entered for C=C(C)C(=O)OCCCCCC ?
Response: 0.0

Prompt: Hello, I am checking results. What call was entered for Clc1cc(Cl)c(Cl)cc1Cl ?
Response: 0.0

Prompt: Hello, I am checking results. What call was entered for Cn1c([N+](=O)[O-])cnc1COC(N)=O ?
Response: 0.0

Prompt: Hello, I am checking results. What call was entered for O=C(Oc1ccccc1)c1ccc(O)cc1 ?
Response: 1.0
